# measurement.description: Thermal stability by Thermogravimetric Analysis (TGA)
# Type: physicochemical
# condition.context: 250 (° C.)
# Procedure: Briefly, the residual weight (%) of the compounds was measured at different temperatures, including 100° C. for water boiling, and other temperatures corresponding to extrusion processes, and the T onset (° C.) by intersection points of tangents was checked. The results are represented in Table 16 below, and in FIG. 6.
Recorded Residual weight % at different temperatures by entry
endpoint.name: Residual weight % at different temperatures

[[record]]
compound = "CCOC(=O)CNC1=C/C(=N/c2ccc(Cn3cncn3)cc2)CC(C)(C)C1 [Formula 55]"
observed_result = "71.2 w %"

[[record]]
compound = "COC(=O)C(Cc1ccccc1)NC1=C/C(=N/c2ccc(F)cc2)CC(C)(C)C1 (stereo not shown) [Formula 67]"
observed_result = "68.1 w %"

[[record]]
compound = "CCOC(=O)CNC1=C/C(=N/c2ccc(OCc3ccccc3)cc2)CC(C)(C)C1 [Formula 49]"
observed_result = "70.2 w %"

[[record]]
compound = "C#Cc1ccc(/N=C2\\CC(C)(C)CC3=C2SCC(C(=O)OCC)N3)cc1 (stereo not shown) [Formula 63]"
observed_result = "68.0 w %"

